These data points were gathered from patent US9345789B2.

target: recombinant legumain (Homo sapiens (Human), UniProt Q99538); test: Inhibition of recombinant legumain, fluorogenic substrate Cbz-Ala-Ala-Asn-AMC; details: at 60 min
Sequence (Q99538 18-433, species assumed): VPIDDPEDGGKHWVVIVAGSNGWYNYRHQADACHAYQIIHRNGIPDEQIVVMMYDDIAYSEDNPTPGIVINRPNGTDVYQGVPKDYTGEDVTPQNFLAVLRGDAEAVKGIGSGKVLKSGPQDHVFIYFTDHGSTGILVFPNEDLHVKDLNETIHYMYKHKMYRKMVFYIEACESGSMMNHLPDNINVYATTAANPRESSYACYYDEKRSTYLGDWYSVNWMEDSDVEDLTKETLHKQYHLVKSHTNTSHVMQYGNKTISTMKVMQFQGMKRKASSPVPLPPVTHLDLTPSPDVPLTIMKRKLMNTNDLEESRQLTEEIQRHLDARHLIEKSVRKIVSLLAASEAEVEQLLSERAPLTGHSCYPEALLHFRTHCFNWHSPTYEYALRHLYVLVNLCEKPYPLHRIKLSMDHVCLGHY
readout: IC50 (µM)

a = CC(=O)N1CCC[C@H]1C(=O)N[C@@H](CC(=O)O)C(=O)COC(=O)c1c(C)cccc1C [LI-0, reference compound]
b = CCOC(=O)[C@@H]1O[C@H]1C(=O)N(CC(N)=O)NC(=O)C1CCCN1C(C)=O (some centres unmarked)
[ask] Which value of IC50 is greater, the one for a or the one for b ? Your answer should be the label attached to the chosen record.
[reply] a
(a: 0.704 µM, b: 0.0115 µM)

* * *

biological target: cathepsin L (Homo sapiens (Human)); assay: Inhibition of cathepsin L, fluorogenic substrate Cbz-Phe-Arg-AMC
readout: IC50 (nM)
Note: unit nM is implicit; provide only the numeric part.

[ask] Any idea what IC50 was measured for CCOC(=O)[C@H]1O[C@@H]1C(=O)N[C@@H](CC(C)C)C(=O)NCCc1ccc(O)cc1 [JPM-OEt, reference compound] ?
[reply] 2980

* * *

molecular target: cathepsin L (Homo sapiens (Human), UniProt P07711); experiment: Inhibition of cathepsin L, fluorogenic substrate Cbz-Phe-Arg-AMC; conditions: read-out: Cathepsin L IC50; at 30 min
Sequence (P07711 114-333, species assumed): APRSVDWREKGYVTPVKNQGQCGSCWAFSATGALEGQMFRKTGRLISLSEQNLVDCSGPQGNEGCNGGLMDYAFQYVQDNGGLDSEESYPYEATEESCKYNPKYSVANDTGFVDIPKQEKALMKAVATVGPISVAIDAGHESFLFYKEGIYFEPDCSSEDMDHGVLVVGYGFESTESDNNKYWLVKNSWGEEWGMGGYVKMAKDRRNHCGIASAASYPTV
readout: IC50 (µM)
# unit: µM | format: bare number

[ask] Requested read-out: IC50. Entry: CCOC(=O)[C@@H]1O[C@H]1C(=O)N(CC(N)=O)NC(=O)C1CCCN1C(C)=O (some centres unmarked)
[reply] 220
